TESTED_ON: T1, phosphorylated peptide (PRHLSNVS(pS)TGSIDMVD) of Example 10 (human)
T1 sequence (peptide, phosphoserine (pS) at peptide position 9): PRHLSNVSSTGSIDMVD
RUN_DESCRIPTION: ELISA, pS413 peptide coated at 1 ug/ml, antibody titrated, goat anti-human-HRP, ABTS, OD405 (Example 10)
PROPERTY_NAME: EC50 (read off the curve)

# return recorded EC50 (read off the curve) for entry Humanized × [MAPT_H] mAb (Ta1505-VL46_N33Q_G34A/VH11) IgG4 S228P/Kappa (CX) (antibody, V domains shown) VH: EVQLVESGGGLVQPGGSLRLSCAASGFTFSSFALNWVRQAPGKGLEWVGHIRSKTNNYATFYAASVKDRFTVSRDDSQNTAYLQMNSLKTEDTATYYCVRRGPRDSWFGYWGQGTLVTVSS VL: DIVMTQSPLSLPVTLGEPASISCRSSQSIVHSQANTYLEWYLQKPGQSPQLLIYTVSNRFSGVPDRFSGSGSGTDFTLKISRVEAEDLGVYYCFQGSHLPLTFGGGTKVEIKR 0.02 µg/mL

# return recorded EC50 (read off the curve) for entry Humanized × [MAPT_H] mAb (Ta1505-VL46 S28N/VH11) IgG4 S228P/Kappa (CX) (antibody, V domains shown) VH: EVQLVESGGGLVQPGGSLRLSCAASGFTFSSFALNWVRQAPGKGLEWVGHIRSKTNNYATFYAASVKDRFTVSRDDSQNTAYLQMNSLKTEDTATYYCVRRGPRDSWFGYWGQGTLVTVSS VL: DIVMTQSPLSLPVTLGEPASISCRSSQNIVHSNGNTYLEWYLQKPGQSPQLLIYTVSNRFSGVPDRFSGSGSGTDFTLKISRVEAEDLGVYYCFQGSHLPLTFGGGTKVEIKR 0.006 µg/mL

# return recorded EC50 (read off the curve) for entry Humanized × [MAPT_H] mAb (Ta1505-VL46_N33Q/VH11) IgG4 S228P/Kappa (CX) (antibody, V domains shown) VH: EVQLVESGGGLVQPGGSLRLSCAASGFTFSSFALNWVRQAPGKGLEWVGHIRSKTNNYATFYAASVKDRFTVSRDDSQNTAYLQMNSLKTEDTATYYCVRRGPRDSWFGYWGQGTLVTVSS VL: DIVMTQSPLSLPVTLGEPASISCRSSQSIVHSQGNTYLEWYLQKPGQSPQLLIYTVSNRFSGVPDRFSGSGSGTDFTLKISRVEAEDLGVYYCFQGSHLPLTFGGGTKVEIKR 0.02 µg/mL

# return recorded EC50 (read off the curve) for entry Humanized × [MAPT_H] mAb (Ta1505-VL46_N33S/VH11) IgG4 S228P/Kappa (CX) (antibody, V domains shown) VH: EVQLVESGGGLVQPGGSLRLSCAASGFTFSSFALNWVRQAPGKGLEWVGHIRSKTNNYATFYAASVKDRFTVSRDDSQNTAYLQMNSLKTEDTATYYCVRRGPRDSWFGYWGQGTLVTVSS VL: DIVMTQSPLSLPVTLGEPASISCRSSQSIVHSSGNTYLEWYLQKPGQSPQLLIYTVSNRFSGVPDRFSGSGSGTDFTLKISRVEAEDLGVYYCFQGSHLPLTFGGGTKVEIKR 0.02 µg/mL

# return recorded EC50 (read off the curve) for entry Humanized × [MAPT_H] mAb (Ta1505-VL46_G34T/VH11) IgG4 S228P/Kappa (CX) (antibody, V domains shown) VH: EVQLVESGGGLVQPGGSLRLSCAASGFTFSSFALNWVRQAPGKGLEWVGHIRSKTNNYATFYAASVKDRFTVSRDDSQNTAYLQMNSLKTEDTATYYCVRRGPRDSWFGYWGQGTLVTVSS VL: DIVMTQSPLSLPVTLGEPASISCRSSQSIVHSNTNTYLEWYLQKPGQSPQLLIYTVSNRFSGVPDRFSGSGSGTDFTLKISRVEAEDLGVYYCFQGSHLPLTFGGGTKVEIKR 0.01 µg/mL

# return recorded EC50 (read off the curve) for entry Humanized × [MAPT_H] mAb (Ta1505-VL46_N33T/VH11) IgG4 S228P/Kappa (CX) (antibody, V domains shown) VH: EVQLVESGGGLVQPGGSLRLSCAASGFTFSSFALNWVRQAPGKGLEWVGHIRSKTNNYATFYAASVKDRFTVSRDDSQNTAYLQMNSLKTEDTATYYCVRRGPRDSWFGYWGQGTLVTVSS VL: DIVMTQSPLSLPVTLGEPASISCRSSQSIVHSTGNTYLEWYLQKPGQSPQLLIYTVSNRFSGVPDRFSGSGSGTDFTLKISRVEAEDLGVYYCFQGSHLPLTFGGGTKVEIKR 0.01 µg/mL
